Please provide measured Kd for the entries that follow.
SYSTEM: cynomolgus DLL3 protein (cynomolgus)
Sequence (chain, as listed by the source): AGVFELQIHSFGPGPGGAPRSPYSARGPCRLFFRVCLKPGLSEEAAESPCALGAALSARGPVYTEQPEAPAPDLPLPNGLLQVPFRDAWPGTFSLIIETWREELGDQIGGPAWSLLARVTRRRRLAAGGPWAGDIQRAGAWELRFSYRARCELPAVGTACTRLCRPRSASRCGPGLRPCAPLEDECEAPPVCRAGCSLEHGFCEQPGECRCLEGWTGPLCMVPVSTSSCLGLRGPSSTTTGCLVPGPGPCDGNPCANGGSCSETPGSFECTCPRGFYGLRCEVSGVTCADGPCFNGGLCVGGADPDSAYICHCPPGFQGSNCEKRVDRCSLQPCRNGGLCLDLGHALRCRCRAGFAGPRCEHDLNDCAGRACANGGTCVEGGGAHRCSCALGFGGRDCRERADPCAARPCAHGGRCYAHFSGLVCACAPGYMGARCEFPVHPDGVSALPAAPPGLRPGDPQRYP
PROTOCOL TEXT: Octet, single concentration of trispecific (60 nM), cynomolgus DLL3
The reply should be a number in nM, with the unit left off.

Kd reading for anti-DLL3 trispecific protein, DLL3 binder 2E05 (protein, part only; not given: CD3 binder and albumin binder, part only) chain, part: EVQLVESGGGLVQPGGSLTLSCVASGSPSSINAYGWYRRAPGKQRELVAGISSDGSKVYSDSVKGRFTISRDNAKNSVYLQMNSLRAEDTAVYYCYYFRTVSGSSMSYWGQGTLVTVSSGGGGSGGGSGGGGSGGGSHHHHHH : 4.8

Short answer for anti-DLL3 trispecific protein, DLL3 binder 3C04 (protein, part only; not given: CD3 binder and albumin binder, part only) chain, part: EVQLVESGGGLVQPGGSLTLSCAASGSHVSFLSMAWYRQAPGKKRELVAGISADGPTDYIDSVKGRFTISRDNAKNSVYLQMNSLRAEDTAVYYCYAYRWDTRYTYWGQGTLVTVSSGGGGSGGGSGGGGSGGGSHHHHHH : Kd was 5.7

get_value(item= anti-DLL3 trispecific protein, DLL3 binder 1H012 (protein, part only; not given: CD3 binder and albumin binder, part only) chain, part: EVQLVESGGGLVQPGGSLTLSCVASGSTSSINAMGWYRRAPGKQRELVAGISSDGSKVYVDSVKGRFTISRDNAKNSVYLQMNSLRAEDTAVYYCYYFRTVSGSSMPYWGQGTLVTVSSGGGGSGGGSGGGGSGGGSHHHHHH , readout=Kd) returns 4.3

Entry anti-DLL3 trispecific protein, DLL3 binder 4D09 (protein, part only; not given: anti-CD3 fragment and anti-albumin domain, part only) chain, part: EVQLVESGGGLVQPGGSLTLSCAASGSSVKFLSMAWYRQAPGKKRELVAGISADGSTDYILSVKGRFTISRDNAKNSVYLQMNSLRAEDTAVYYCYAYEWTTRYTYWGQGTLVTVSSGGGGSGGGSGGGGSGGGSHHHHHH , Kd reported as 8.2

Kd reported for this binder anti-DLL3 trispecific protein, DLL3 binder 3A011 (protein, part only; not given: anti-CD3 fragment and anti-albumin domain, part only) chain, part: EVQLVESGGGLVQPGGSLTLSCAASGSSVSFLSLAWYRQAPGKKRELVAGISTDGSTDYIDSVKGRFTISRDNAKNSVYLQMNSLRAEDTAVYYCYAYRWRTRYTYWGQGTLVTVSSGGGGSGGGSGGGGSGGGSHHHHHH : 8.8

Reported Kd of anti-DLL3 trispecific protein, DLL3 binder 2E02 (protein, part only; not given: anti-CD3 fragment and anti-albumin domain, part only) chain, part: EVQLVESGGGLVQPGGSLTLSCVASGSTSAINAMGWYRRAPGKQRELVAGISSDGSKVYVDSVKGRFTISRDNAKNSVYLQMNSLRAEDTAVYYCYYFRTVSGSSQRYWGQGTLVTVSSGGGGSGGGSGGGGSGGGSHHHHHH : 3.4

The reported Kd of the binder anti-DLL3 trispecific protein, DLL3 binder 1A011 (protein, part only; not given: anti-CD3 fragment and anti-albumin domain, part only) chain, part: EVQLVESGGGLVQPGGSLTLSCVASGSTSSINAIGWYRRAPGKQRELVAGISSDGSKVYIDSVKGRFTISRDNAKNSVYLQMNSLRAEDTAVYYCYYFRTVSGSSYRYWGQGTLVTVSSGGGGSGGGSGGGGSGGGSHHHHHH was 3.6
